biological target: equine FcRn (large alpha subunit p51) in complex with equine beta-2-microglobulin (equine) (UniProt F6XZ61); assay: SPR (Biacore), pH 6
Quick list: Kd per entry.

- binder: "equine IgG7 D312T mutant (antibody, part only; not given: variable domains, not shown: another chain or arm of the molecule) constant: ASTTAPKVFPLASHSAATSGSTVALGCLVSSYFPEPVTVSWNSGALTSGVHTFPSVLQSSGLYSLSSMVTVPASSLKSQTYICNVAHPASSTKVDKKIVIKECGGCPTCPECLSVGPSVFIFPPKPKDVLMISRTPTVTCVVVDVGHDFPDVQFNWYVDGVETHTATTEPKQEQNNSTYRVVSILAIQHKTWLSGKEFKCKVNNQALPAPVQKTISKPTGQPREPQVYVLAPHRDELSKNKVSVTCLVKDFYPTDIDIEWKSNGQPEPETKYSTTPAQLDSDGSYFLYSKLTVETNRWQQGTTFTCAVMHEALHNHYTEKSVSKSPGK"
  Kd [nM]: 9.9
- binder: "equine IgG7 M428D mutant (antibody, part only; not given: variable domains, not shown: another chain or arm of the molecule) constant: ASTTAPKVFPLASHSAATSGSTVALGCLVSSYFPEPVTVSWNSGALTSGVHTFPSVLQSSGLYSLSSMVTVPASSLKSQTYICNVAHPASSTKVDKKIVIKECGGCPTCPECLSVGPSVFIFPPKPKDVLMISRTPTVTCVVVDVGHDFPDVQFNWYVDGVETHTATTEPKQEQNNSTYRVVSILAIQHKDWLSGKEFKCKVNNQALPAPVQKTISKPTGQPREPQVYVLAPHRDELSKNKVSVTCLVKDFYPTDIDIEWKSNGQPEPETKYSTTPAQLDSDGSYFLYSKLTVETNRWQQGTTFTCAVDHEALHNHYTEKSVSKSPGK"
  Kd [nM]: 2000
- binder: "equine IgG7 T286I mutant (antibody, part only; not given: variable domains, not shown: another chain or arm of the molecule) constant: ASTTAPKVFPLASHSAATSGSTVALGCLVSSYFPEPVTVSWNSGALTSGVHTFPSVLQSSGLYSLSSMVTVPASSLKSQTYICNVAHPASSTKVDKKIVIKECGGCPTCPECLSVGPSVFIFPPKPKDVLMISRTPTVTCVVVDVGHDFPDVQFNWYVDGVETHIATTEPKQEQNNSTYRVVSILAIQHKDWLSGKEFKCKVNNQALPAPVQKTISKPTGQPREPQVYVLAPHRDELSKNKVSVTCLVKDFYPTDIDIEWKSNGQPEPETKYSTTPAQLDSDGSYFLYSKLTVETNRWQQGTTFTCAVMHEALHNHYTEKSVSKSPGK"
  Kd [nM]: 15.8
- binder: "equine IgG7 D312P mutant (antibody, part only; not given: variable domains, not shown: another chain or arm of the molecule) constant: ASTTAPKVFPLASHSAATSGSTVALGCLVSSYFPEPVTVSWNSGALTSGVHTFPSVLQSSGLYSLSSMVTVPASSLKSQTYICNVAHPASSTKVDKKIVIKECGGCPTCPECLSVGPSVFIFPPKPKDVLMISRTPTVTCVVVDVGHDFPDVQFNWYVDGVETHTATTEPKQEQNNSTYRVVSILAIQHKPWLSGKEFKCKVNNQALPAPVQKTISKPTGQPREPQVYVLAPHRDELSKNKVSVTCLVKDFYPTDIDIEWKSNGQPEPETKYSTTPAQLDSDGSYFLYSKLTVETNRWQQGTTFTCAVMHEALHNHYTEKSVSKSPGK"
  Kd [nM]: 8
- binder: "equine IgG7 D312N mutant (antibody, part only; not given: Variable domains, not shown: another chain or arm of the molecule) constant: ASTTAPKVFPLASHSAATSGSTVALGCLVSSYFPEPVTVSWNSGALTSGVHTFPSVLQSSGLYSLSSMVTVPASSLKSQTYICNVAHPASSTKVDKKIVIKECGGCPTCPECLSVGPSVFIFPPKPKDVLMISRTPTVTCVVVDVGHDFPDVQFNWYVDGVETHTATTEPKQEQNNSTYRVVSILAIQHKNWLSGKEFKCKVNNQALPAPVQKTISKPTGQPREPQVYVLAPHRDELSKNKVSVTCLVKDFYPTDIDIEWKSNGQPEPETKYSTTPAQLDSDGSYFLYSKLTVETNRWQQGTTFTCAVMHEALHNHYTEKSVSKSPGK"
  Kd [nM]: 25.3
- binder: "equine IgG7 D312A mutant (antibody, part only; not given: Variable domains, not shown: another chain or arm of the molecule) constant: ASTTAPKVFPLASHSAATSGSTVALGCLVSSYFPEPVTVSWNSGALTSGVHTFPSVLQSSGLYSLSSMVTVPASSLKSQTYICNVAHPASSTKVDKKIVIKECGGCPTCPECLSVGPSVFIFPPKPKDVLMISRTPTVTCVVVDVGHDFPDVQFNWYVDGVETHTATTEPKQEQNNSTYRVVSILAIQHKAWLSGKEFKCKVNNQALPAPVQKTISKPTGQPREPQVYVLAPHRDELSKNKVSVTCLVKDFYPTDIDIEWKSNGQPEPETKYSTTPAQLDSDGSYFLYSKLTVETNRWQQGTTFTCAVMHEALHNHYTEKSVSKSPGK"
  Kd [nM]: 17.6
- binder: "equine IgG7 T286P mutant (antibody, part only; not given: variable domains, not shown: another chain or arm of the molecule) constant: ASTTAPKVFPLASHSAATSGSTVALGCLVSSYFPEPVTVSWNSGALTSGVHTFPSVLQSSGLYSLSSMVTVPASSLKSQTYICNVAHPASSTKVDKKIVIKECGGCPTCPECLSVGPSVFIFPPKPKDVLMISRTPTVTCVVVDVGHDFPDVQFNWYVDGVETHPATTEPKQEQNNSTYRVVSILAIQHKDWLSGKEFKCKVNNQALPAPVQKTISKPTGQPREPQVYVLAPHRDELSKNKVSVTCLVKDFYPTDIDIEWKSNGQPEPETKYSTTPAQLDSDGSYFLYSKLTVETNRWQQGTTFTCAVMHEALHNHYTEKSVSKSPGK"
  Kd [nM]: 6.9
- binder: "equine IgG7 D312V mutant (antibody, part only; not given: variable domains, not shown: another chain or arm of the molecule) constant: ASTTAPKVFPLASHSAATSGSTVALGCLVSSYFPEPVTVSWNSGALTSGVHTFPSVLQSSGLYSLSSMVTVPASSLKSQTYICNVAHPASSTKVDKKIVIKECGGCPTCPECLSVGPSVFIFPPKPKDVLMISRTPTVTCVVVDVGHDFPDVQFNWYVDGVETHTATTEPKQEQNNSTYRVVSILAIQHKVWLSGKEFKCKVNNQALPAPVQKTISKPTGQPREPQVYVLAPHRDELSKNKVSVTCLVKDFYPTDIDIEWKSNGQPEPETKYSTTPAQLDSDGSYFLYSKLTVETNRWQQGTTFTCAVMHEALHNHYTEKSVSKSPGK"
  Kd [nM]: 11.3
